Target: Grb2 SH2 (UniProt P62993)
Sequence (P62993 whole entry, looked up): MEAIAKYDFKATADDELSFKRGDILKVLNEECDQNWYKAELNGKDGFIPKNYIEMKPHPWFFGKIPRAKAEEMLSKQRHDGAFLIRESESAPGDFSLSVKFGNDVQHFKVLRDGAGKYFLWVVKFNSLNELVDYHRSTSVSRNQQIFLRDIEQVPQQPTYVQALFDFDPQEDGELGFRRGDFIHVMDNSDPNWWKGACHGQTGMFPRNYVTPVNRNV
Assay: SH2 binding enrichment of the phosphorylated peptide, bacterial display (enrichment ratio); higher = better substrate or ligand; peptides without Tyr show the background
Outcome label depends on SH2 binding enrichment relative to 0.8: at/above gives satisfied, below gives not satisfied.

Recorded results for 5 sequences are shown here.
>  <Input sequence>
SLIDMYSEVLA [OPA1_Y268_D273A]

>  <Class name>
satisfied

$$$$
>  <Input sequence>
SDQRRYSLIDR [CLIP2_Y972]

>  <Class name>
satisfied

$$$$
>  <Input sequence>
KPGLIYNKVNP [SPRED3_Y72_V71I]

>  <Class name>
satisfied

$$$$
>  <Input sequence>
GGMTEYNLVVV [KRAS_Y4_K5N]

>  <Class name>
not satisfied

$$$$
>  <Input sequence>
GGEEFYVHFVG [KAT8_Y90_R86G_YF]

>  <Class name>
not satisfied

$$$$

Task: Determine whether this sequence has SH2 binding enrichment no lower than 0.8: TKDTIYKQPMF [GBA_Y451_F450I]
Result: satisfied

Task: Determine whether this sequence has SH2 binding enrichment no lower than 0.8: DSMQSYDLDYP [UNC13B_Y243]
Result: satisfied

Task: Determine whether this sequence has SH2 binding enrichment no lower than 0.8: DEQKKYYNAMK [SCN5A_Y1494_E1489D]
Result: satisfied

Task: Determine whether this sequence has SH2 binding enrichment no lower than 0.8: KLQQWYREPRS [GPI_Y17_H20P]
Result: satisfied

====

System: Fer (mouse);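 further: 11-residue human phosphosite peptides and single-mutation variants displayed on the E. coli surface, counted by deep sequencing, each peptide's frequency after selection divided by its frequency in the unselected input library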;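 further: frequency after pTyr selection over input frequency; kinase dosed for 20-30% of maximal phosphorylation in three min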
Assay: phosphorylation enrichment, bacterial display (enrichment ratio); higher = better substrate or ligand; peptides without Tyr show the background
Outcome label depends on phosphorylation enrichment relative to 0.5: at/above gives 1.0, below gives 0.0.

Recorded results for 6 sequences are shown here.
>  <Input sequence>
QCTSAYPLQPE [NANS_Y188]

>  <Class name>
1.0

$$$$
>  <Input sequence>
GGYNNYGYGSD [HNRNPH3_Y159_N163S]

>  <Class name>
0.0

$$$$
>  <Input sequence>
SAPPSHEETVA [LITAF_Y23_Y23H]

>  <Class name>
1.0

$$$$
>  <Input sequence>
AQESNYRLLRR [SLC20A2_Y377]

>  <Class name>
0.0

$$$$
>  <Input sequence>
RIGRKYKRVRF [F8_Y442_K444R]

>  <Class name>
1.0

$$$$
>  <Input sequence>
DAICYYRMENA [NPHS2_Y195]

>  <Class name>
1.0

$$$$

Task: Determine whether this sequence has phosphorylation enrichment no lower than 0.5: RREWFYEVIIV [BACE1_Y260_YF]
Result: 1.0

Task: Determine whether this sequence has phosphorylation enrichment no lower than 0.5: WDLPEYSFKDP [ITGA3_Y237_S235P_YF]
Result: 0.0

Task: Determine whether this sequence has phosphorylation enrichment no lower than 0.5: QEVLEYFMKQM [PIK3CA_Y1038_A1035V]
Result: 1.0

Task: Determine whether this sequence has phosphorylation enrichment no lower than 0.5: YGSSSYGGAGG [RPA2_Y14]
Result: 0.0

Task: Determine whether this sequence has phosphorylation enrichment no lower than 0.5: PPAPRCHHSAV [LZTR1_Y119_Y119C]
Result: 1.0

Task: Determine whether this sequence has phosphorylation enrichment no lower than 0.5: SVGGLYRDMGA [CBX8_Y321_G317V]
Result: 0.0

Task: Determine whether this sequence has phosphorylation enrichment no lower than 0.5: FPKDVYVDSKD [NDUFAF4_Y69_L65P]
Result: 0.0

Task: Determine whether this sequence has phosphorylation enrichment no lower than 0.5: VMSGPYELKAL [IL1B_Y140]
Result: 0.0

Task: Determine whether this sequence has phosphorylation enrichment no lower than 0.5: VSRGRYRPQEC [B4GALT4_Y113]
Result: 1.0

Task: Determine whether this sequence has phosphorylation enrichment no lower than 0.5: SAPDSYIRIGN [SLC38A4_Y27_G29R]
Result: 0.0

Data origin: the supplement of paper PMC10065799
